- study-system: human neutrophil elastase (HNE) (Homo sapiens)
- Sequence (P08246 30-267): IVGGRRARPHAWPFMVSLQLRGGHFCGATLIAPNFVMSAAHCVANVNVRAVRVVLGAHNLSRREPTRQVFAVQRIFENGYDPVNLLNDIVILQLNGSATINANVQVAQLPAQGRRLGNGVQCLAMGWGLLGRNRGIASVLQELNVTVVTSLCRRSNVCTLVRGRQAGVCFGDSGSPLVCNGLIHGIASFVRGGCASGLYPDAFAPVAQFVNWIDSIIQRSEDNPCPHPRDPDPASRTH
- assay-details: Potency (IC50 determination) against human neutrophil elastase, chromogenic substrate N-methoxysuccinyl-ala-ala-pro-val-pNA, 405 nm
- condition-set: pH 7.7, 7 min incubation at room temperature

{"columns": ["compound", "study-system", "display-unit", "IC50"],
 "data": [
  ["CCC(C(=O)Oc1ccc([S+](C)[O-])cc1)c1ccc(C(CC)C(=O)Oc2ccc([S+](C)[O-])cc2)cc1 (stereo not drawn)", "human neutrophil elastase (HNE) (Homo sapiens)", "nM", 224],
  ["CCC(C(=O)Oc1ccc([S+]([O-])CC(C)(C)C(=O)O)cc1)c1ccc(C(CC)C(=O)Oc2ccc([S+]([O-])CC(C)(C)C(=O)O)cc2)cc1 (stereo not drawn)", "human neutrophil elastase (HNE) (Homo sapiens)", "nM", 40],
  ["CCC(C(=O)Oc1ccc(SC)cc1)c1ccc(C(CC)C(=O)Oc2ccc(SC)cc2)cc1 (stereo not drawn)", "human neutrophil elastase (HNE) (Homo sapiens)", "nM", 8440],
  ["CCC(C(=O)Oc1ccc(SCC(C)(C)C(=O)O)cc1)c1ccc(C(CC)C(=O)Oc2ccc(SCC(C)(C)C(=O)O)cc2)cc1 (stereo not drawn)", "human neutrophil elastase (HNE) (Homo sapiens)", "nM", 120],
  ["CCC(C(=O)Oc1ccc(SCC(C)(C)C(=O)O)cc1)c1cccc(C(CC)C(=O)Oc2ccc(SCC(C)(C)C(=O)O)cc2)c1 (stereo not drawn)", "human neutrophil elastase (HNE) (Homo sapiens)", "nM", 198],
  ["CCC(C(=O)Oc1ccc(S(=O)(=O)CC(C)(C)C(=O)O)cc1)c1cccc(C(CC)C(=O)Oc2ccc(S(=O)(=O)CC(C)(C)C(=O)O)cc2)c1 (stereo not drawn)", "human neutrophil elastase (HNE) (Homo sapiens)", "nM", 36]
]}

Attribution: patent US5216022A
